Reported Edema thickness ± SEM, 3 h values are given for each entry in this list.
System: carrageenan-induced rat paw edema
Experiment: Carrageenan-induced rat paw edema model
Format: in vivo
Conditions: 10 mg kg−1 po, 3 h after carrageenan injection, n = 4
MEASURE_NAME: Edema thickness ± SEM, 3 h (mm)

INSERT INTO results (compound, measure_name, test_value) VALUES
  ('Cc1ccc2c(c1)nc(-c1ccc(S(C)(=O)=O)cc1)n2CC(=O)N/N=C/c1ccc(F)cc1 [11l]', 'Edema thickness ± SEM, 3 h', 1.102),
  ('COc1ccc2c(c1)c(CC(=O)O)c(C)n2C(=O)c1ccc(Cl)cc1 [Indomethacin, indomethacin, reference compound]', 'Edema thickness ± SEM, 3 h', 0.083),
  ('C/C(=N\NC(=O)Cn1c(-c2ccc(S(C)(=O)=O)cc2)nc2cc(Cl)ccc21)c1ccc(Cl)cc1 [12d]', 'Edema thickness ± SEM, 3 h', 0.154),
  ('Cc1ccc2c(c1)nc(-c1ccc(S(C)(=O)=O)cc1)n2CC(=O)N/N=C/c1ccc(Cl)cc1 [11j]', 'Edema thickness ± SEM, 3 h', 0.194),
  ('C/C(=N\NC(=O)Cn1c(-c2ccc(S(C)(=O)=O)cc2)nc2cc(C)ccc21)c1ccc(Cl)cc1 [12f]', 'Edema thickness ± SEM, 3 h', 0.801),
  ('COc1ccc(/C=N/NC(=O)Cn2c(-c3ccc(S(C)(=O)=O)cc3)nc3cc(Cl)ccc32)cc1 [11g]', 'Edema thickness ± SEM, 3 h', 0.785),
  ('Cc1ccc(-c2cc(C(F)(F)F)nn2-c2ccc(S(N)(=O)=O)cc2)cc1 [Celecoxib, celecoxib, reference compound]', 'Edema thickness ± SEM, 3 h', 0.142),
  ('CS(=O)(=O)c1ccc(-c2nc3ccccc3n2CC(=O)N/N=C/c2ccc(Cl)cc2)cc1 [11b]', 'Edema thickness ± SEM, 3 h', 0.155);

---

Reported IC50 for target or system UniProtKB P79208, by entry.
Sequence (P79208 17-603): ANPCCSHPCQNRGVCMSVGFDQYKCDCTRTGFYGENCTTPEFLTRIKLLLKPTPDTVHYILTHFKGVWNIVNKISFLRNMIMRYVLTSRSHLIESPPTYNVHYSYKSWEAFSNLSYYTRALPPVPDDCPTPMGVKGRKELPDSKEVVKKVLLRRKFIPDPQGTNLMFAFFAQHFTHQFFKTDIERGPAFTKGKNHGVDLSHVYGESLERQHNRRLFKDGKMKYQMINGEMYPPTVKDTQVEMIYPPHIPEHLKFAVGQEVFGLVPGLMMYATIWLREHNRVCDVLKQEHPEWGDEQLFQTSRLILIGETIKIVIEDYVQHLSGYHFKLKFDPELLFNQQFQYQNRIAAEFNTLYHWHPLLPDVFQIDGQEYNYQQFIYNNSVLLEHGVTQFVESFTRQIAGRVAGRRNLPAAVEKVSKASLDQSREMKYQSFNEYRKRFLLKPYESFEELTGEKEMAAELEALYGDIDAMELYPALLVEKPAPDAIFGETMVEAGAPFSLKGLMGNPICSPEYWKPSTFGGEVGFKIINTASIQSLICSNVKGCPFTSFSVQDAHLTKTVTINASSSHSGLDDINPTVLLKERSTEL
MEASURE_NAME: IC50 (nM)

INSERT INTO results (molecule, test_system, measure_name, test_value) VALUES
  ('CS(=O)(=O)c1ccc(-c2nc3cc(Cl)ccc3n2CC(=O)N/N=C/c2ccc(Cl)cc2)cc1 [11f]', 'UniProtKB P79208', 'IC50', 130),
  ('CS(=O)(=O)c1ccc(-c2nc3ccccc3n2CC(=O)N/N=C/c2ccc(F)cc2)cc1 [11d]', 'UniProtKB P79208', 'IC50', 120),
  ('C/C(=N\NC(=O)Cn1c(-c2ccc(S(C)(=O)=O)cc2)nc2cc(Cl)ccc21)c1ccc(Cl)cc1 [12d]', 'UniProtKB P79208', 'IC50', 100),
  ('CS(=O)(=O)c1ccc(-c2nc3cc(Cl)ccc3n2CC(=O)N/N=C/c2ccc(F)cc2)cc1 [11h]', 'UniProtKB P79208', 'IC50', 220);

---

System: carrageenan-induced rat paw edema
Experiment: Carrageenan-induced rat paw edema model
Type: in vivo
Conditions: 10 mg kg−1 po, 3 h after carrageenan injection, n = 4
MEASURE_NAME: Edema thickness ± SEM, 3 h (mm)

INSERT INTO results (compound, test_system, measure_name, unit_string, test_value) VALUES
  ('CS(=O)(=O)c1ccc(-c2nc3ccccc3n2CC(=O)N/N=C/c2ccccc2)cc1 [11a]', 'carrageenan-induced rat paw edema', 'Edema thickness ± SEM, 3 h', 'mm', 0.812),
  ('CS(=O)(=O)c1ccc(-c2nc3cc(Cl)ccc3n2CC(=O)N/N=C/c2ccc(F)cc2)cc1 [11h]', 'carrageenan-induced rat paw edema', 'Edema thickness ± SEM, 3 h', 'mm', 1.063),
  ('CS(=O)(=O)c1ccc(-c2nc3cc(Cl)ccc3n2CC(=O)N/N=C/c2ccc(Cl)cc2)cc1 [11f]', 'carrageenan-induced rat paw edema', 'Edema thickness ± SEM, 3 h', 'mm', 0.449),
  ('CS(=O)(=O)c1ccc(-c2nc3ccccc3n2CC(=O)N/N=C/c2ccc(F)cc2)cc1 [11d]', 'carrageenan-induced rat paw edema', 'Edema thickness ± SEM, 3 h', 'mm', 0.427),
  ('COc1ccc(/C=N/NC(=O)Cn2c(-c3ccc(S(C)(=O)=O)cc3)nc3ccccc32)cc1 [11c]', 'carrageenan-induced rat paw edema', 'Edema thickness ± SEM, 3 h', 'mm', 0.181),
  ('C/C(=N\NC(=O)Cn1c(-c2ccc(S(C)(=O)=O)cc2)nc2ccccc21)c1ccc(Cl)cc1 [12b]', 'carrageenan-induced rat paw edema', 'Edema thickness ± SEM, 3 h', 'mm', 0.240),
  ('C/C(=N\NC(=O)Cn1c(-c2ccc(S(C)(=O)=O)cc2)nc2ccccc21)c1ccccc1 [12a]', 'carrageenan-induced rat paw edema', 'Edema thickness ± SEM, 3 h', 'mm', 1.017),
  ('COc1ccc(/C=N/NC(=O)Cn2c(-c3ccc(S(C)(=O)=O)cc3)nc3cc(C)ccc32)cc1 [11k]', 'carrageenan-induced rat paw edema', 'Edema thickness ± SEM, 3 h', 'mm', 0.189);

---

Test system: rat stomach
Test: Ulcerogenic liability
Type: in vivo
Settings: rats sacrificed 4 h after drug administration
MEASURE_NAME: Ulcer index, mean (mm)

INSERT INTO measurements (compound, unit_string, test_value) VALUES
  ('C/C(=N\NC(=O)Cn1c(-c2ccc(S(C)(=O)=O)cc2)nc2cc(Cl)ccc21)c1ccc(Cl)cc1 [12d]', 'mm', 1),
  ('CS(=O)(=O)c1ccc(-c2nc3ccccc3n2CC(=O)N/N=C/c2ccc(Cl)cc2)cc1 [11b]', 'mm', 0.83),
  ('Cc1ccc(-c2cc(C(F)(F)F)nn2-c2ccc(S(N)(=O)=O)cc2)cc1 [Celecoxib, celecoxib, reference compound]', 'mm', 3.5),
  ('COc1ccc2c(c1)c(CC(=O)O)c(C)n2C(=O)c1ccc(Cl)cc1 [Indomethacin, indomethacin, reference compound]', 'mm', 13),
  ('COc1ccc(/C=N/NC(=O)Cn2c(-c3ccc(S(C)(=O)=O)cc3)nc3cc(C)ccc32)cc1 [11k]', 'mm', 4.5);

---

Tested on: carrageenan-induced rat paw edema
Test: Carrageenan-induced rat paw edema model
Format: in vivo
Settings: 10 mg kg−1 po, 1 h after carrageenan injection, n = 4
MEASURE_NAME: Edema inhibition %, 1 h (%)

INSERT INTO assay_data (compound, test_system, measure_name, unit_string, test_value) VALUES
  ('C/C(=N\NC(=O)Cn1c(-c2ccc(S(C)(=O)=O)cc2)nc2ccccc21)c1ccc(Cl)cc1 [12b]', 'carrageenan-induced rat paw edema', 'Edema inhibition %, 1 h', '%', 80),
  ('C/C(=N\NC(=O)Cn1c(-c2ccc(S(C)(=O)=O)cc2)nc2ccccc21)c1ccccc1 [12a]', 'carrageenan-induced rat paw edema', 'Edema inhibition %, 1 h', '%', 50),
  ('Cc1ccc2c(c1)nc(-c1ccc(S(C)(=O)=O)cc1)n2CC(=O)N/N=C/c1ccc(F)cc1 [11l]', 'carrageenan-induced rat paw edema', 'Edema inhibition %, 1 h', '%', 47),
  ('Cc1ccc(-c2cc(C(F)(F)F)nn2-c2ccc(S(N)(=O)=O)cc2)cc1 [Celecoxib, celecoxib, reference compound]', 'carrageenan-induced rat paw edema', 'Edema inhibition %, 1 h', '%', 74),
  ('CS(=O)(=O)c1ccc(-c2nc3ccccc3n2CC(=O)N/N=C/c2ccccc2)cc1 [11a]', 'carrageenan-induced rat paw edema', 'Edema inhibition %, 1 h', '%', 60),
  ('C/C(=N\NC(=O)Cn1c(-c2ccc(S(C)(=O)=O)cc2)nc2cc(Cl)ccc21)c1ccc(Cl)cc1 [12d]', 'carrageenan-induced rat paw edema', 'Edema inhibition %, 1 h', '%', 89),
  ('Cc1ccc2c(c1)nc(-c1ccc(S(C)(=O)=O)cc1)n2CC(=O)N/N=C/c1ccc(Cl)cc1 [11j]', 'carrageenan-induced rat paw edema', 'Edema inhibition %, 1 h', '%', 81),
  ('CS(=O)(=O)c1ccc(-c2nc3cc(Cl)ccc3n2CC(=O)N/N=C/c2ccc(Cl)cc2)cc1 [11f]', 'carrageenan-induced rat paw edema', 'Edema inhibition %, 1 h', '%', 78);

---

Test system: carrageenan-induced rat paw edema
Assay: Carrageenan-induced rat paw edema model
Type: in vivo
Settings: 10 mg kg−1 po, 1 h after carrageenan injection, n = 4
Listed here: items and their measured Edema inhibition %, 1 h.
MEASURE_NAME: Edema inhibition %, 1 h (%)

INSERT INTO measurements (compound, unit_string, test_value) VALUES
  ('C/C(=N\NC(=O)Cn1c(-c2ccc(S(C)(=O)=O)cc2)nc2cc(C)ccc21)c1ccc(Cl)cc1 [12f]', '%', 60),
  ('CS(=O)(=O)c1ccc(-c2nc3ccccc3n2CC(=O)N/N=C/c2ccc(Cl)cc2)cc1 [11b]', '%', 86),
  ('COc1ccc(/C=N/NC(=O)Cn2c(-c3ccc(S(C)(=O)=O)cc3)nc3ccccc32)cc1 [11c]', '%', 81),
  ('CS(=O)(=O)c1ccc(-c2nc3cc(Cl)ccc3n2CC(=O)N/N=C/c2ccc(F)cc2)cc1 [11h]', '%', 50),
  ('COc1ccc(/C=N/NC(=O)Cn2c(-c3ccc(S(C)(=O)=O)cc3)nc3cc(Cl)ccc32)cc1 [11g]', '%', 61),
  ('COc1ccc(/C=N/NC(=O)Cn2c(-c3ccc(S(C)(=O)=O)cc3)nc3cc(C)ccc32)cc1 [11k]', '%', 82);
